Target: M2 receptor (Homo sapiens (Human), UniProt P08172)
Sequence (P08172 whole entry): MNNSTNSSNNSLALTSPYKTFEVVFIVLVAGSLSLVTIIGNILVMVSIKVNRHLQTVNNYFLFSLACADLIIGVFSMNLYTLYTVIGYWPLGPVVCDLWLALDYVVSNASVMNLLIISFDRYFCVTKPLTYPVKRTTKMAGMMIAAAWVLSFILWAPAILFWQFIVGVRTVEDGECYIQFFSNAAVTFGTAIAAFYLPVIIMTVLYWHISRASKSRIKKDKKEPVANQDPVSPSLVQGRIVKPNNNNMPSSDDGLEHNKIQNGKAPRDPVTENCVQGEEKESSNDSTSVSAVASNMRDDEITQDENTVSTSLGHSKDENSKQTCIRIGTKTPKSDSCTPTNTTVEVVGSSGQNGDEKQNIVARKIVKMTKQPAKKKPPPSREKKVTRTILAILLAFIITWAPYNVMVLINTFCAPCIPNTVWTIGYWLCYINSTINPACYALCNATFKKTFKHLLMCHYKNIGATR
Experiment: M2 receptor affinity test (3H-NMS competition)
Type: binding
Description: M2 receptor is a G protein-coupled receptor. In this experiment, the activity of test compounds against the M2 receptor in vitro was assayed by the competition of radioisotope labeled NMS and non-isotope labeled test compounds for an M2 binding site. The M2 receptor membrane protein was prepared at 100 μg/mL by Biology Department of WuXi AppTec, and compounds were serially diluted in a 2.5-fold gradient in DMSO to obtain 10 concentrations. […]
Counter-ions that a name gives are not always drawn.
METRIC: pIC50
Give bare numbers, as −log10 of the molar value.

As a guide, the following entries are already answered.
>  <COMPOUND>
CN(CCCn1nnc2cc(CNC[C@H](O)c3ccc(O)c4[nH]c(=O)ccc34)c3c(c21)OCO3)[C@H]1CC[C@H](OC(=O)C(O)(c2cccs2)c2cccs2)CC1 [Formate salt of compound 33]

>  <RESULT>
9.81

$$$$
>  <COMPOUND>
CN(CCCn1nnc2cc(CNC[C@H](O)c3ccc(O)c4[nH]c(=O)ccc34)c3c(c21)CCC3)[C@H]1CC[C@H](OC(=O)C(O)(c2cccs2)c2cccs2)CC1 [Trifluoroacetate salt of compound 1]

>  <RESULT>
10.21

$$$$
>  <COMPOUND>
CN(CCCn1cnc2cc(CNC[C@H](O)c3ccc(O)c4[nH]c(=O)ccc34)c3c(c21)CCC3)[C@H]1CC[C@H](OC(=O)C(O)(c2cccs2)c2cccs2)CC1 [Formate salt of compound 41]

>  <RESULT>
9.57

$$$$

Below: the item to evaluate.
Request the reported pIC50 associated with CN(CCCn1nnc2cc(CNC[C@H](O)c3ccc(O)c4[nH]c(=O)ccc34)c3c(c21)COC3)[C@H]1CC[C@H](OC(=O)C(O)(c2cccs2)c2cccs2)CC1 [Formate salt of compound 40]
9.64

====

target: M3 receptor (Homo sapiens (Human)); assay: M3 receptor affinity test (3H-NMS competition); assay type: binding; settings: 0.2 nM 3H-NMS, M3 receptor membrane protein, 2 h at room temperature; read-out: IC50, activity against the M3 receptor in vitro
Sequence (P20309 whole entry): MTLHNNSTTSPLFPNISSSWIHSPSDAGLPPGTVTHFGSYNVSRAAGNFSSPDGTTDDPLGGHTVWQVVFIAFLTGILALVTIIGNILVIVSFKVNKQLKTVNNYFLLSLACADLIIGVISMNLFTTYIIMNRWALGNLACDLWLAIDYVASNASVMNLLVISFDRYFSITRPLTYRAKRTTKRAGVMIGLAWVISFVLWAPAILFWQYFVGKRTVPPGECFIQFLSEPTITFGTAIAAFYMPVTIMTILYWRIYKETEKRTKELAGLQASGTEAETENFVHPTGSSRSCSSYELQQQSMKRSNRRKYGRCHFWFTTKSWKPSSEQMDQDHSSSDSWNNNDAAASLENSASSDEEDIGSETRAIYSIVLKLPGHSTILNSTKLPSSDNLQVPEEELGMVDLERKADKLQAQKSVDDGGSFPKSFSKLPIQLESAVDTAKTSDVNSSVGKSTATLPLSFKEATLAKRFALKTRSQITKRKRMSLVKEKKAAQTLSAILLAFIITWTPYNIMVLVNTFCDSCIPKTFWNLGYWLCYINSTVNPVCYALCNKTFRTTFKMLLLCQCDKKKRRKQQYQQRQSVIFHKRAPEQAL
Counter-ions that a name gives are not always drawn.
METRIC: pIC50
Numbers only, as −log10 of the molar value.

Request the reported pIC50 associated with Cc1ccc(C(O)(C(=O)C[C@H]2CC[C@H](N(C)CCCn3nnc4cc(CNC[C@H](O)c5ccc(O)c6[nH]c(=O)ccc56)c5c(c43)CCC5)CC2)c2ccc(C)s2)s1 [Formate salt of compound 32]
8.92

====

target: M3 receptor (Homo sapiens (Human)); assay: M3 receptor affinity test (3H-NMS competition); assay type: binding
Structures can show the parent of a compound that is named as a salt.
METRIC: IC50 (nM)
Numbers only, in nM.

As a guide, the following entries are already answered.
>  <COMPOUND>
CN(CCCn1cnc2cc(CNC[C@H](O)c3ccc(O)c4[nH]c(=O)ccc34)c3c(c21)CCC3)[C@H]1CC[C@H](OC(=O)C(O)(c2cccs2)c2cccs2)CC1 [Formate salt of compound 41]

>  <UNITS LABEL>
nM

>  <IC50>
0.201

$$$$
>  <COMPOUND>
CN(CCCn1nnc2cc(CNC[C@H](O)c3ccc(O)c4[nH]c(=O)ccc34)c3c(c21)COC3)[C@H]1CC[C@H](OC(=O)C(O)(c2cccs2)c2cccs2)CC1 [Formate salt of compound 40]

>  <UNITS LABEL>
nM

>  <IC50>
0.363

$$$$

Request the reported IC50 associated with CN(CCCn1nnc2cc(CNC[C@H](O)c3ccc(O)c4[nH]c(=O)ccc34)c3c(c21)OCO3)[C@H]1CC[C@H](OC(=O)C(O)(c2cccs2)c2cccs2)CC1 [Formate salt of compound 33]
0.494

Values compiled from patent US20230322745A1.
